// Trimeric HA Binding: RLU lookup, one value per entry
Molecular target: recombinant homotrimeric HA A/Hong Kong/1073/99 H9N2 (Influenza A virus A/Hong Kong/1073/99 (H9N2))
Test: protein microarray, purified IgG, trimeric HA
Conditions: remark: other sources report otherwise
Report only the number, with the unit RLU understood.

// known answers, use as guide
BINDER	OUTPUT_UNIT	EXPERIMENTAL_RESULT
TCN-535 (5246_P19) (antibody, V domains shown) VH: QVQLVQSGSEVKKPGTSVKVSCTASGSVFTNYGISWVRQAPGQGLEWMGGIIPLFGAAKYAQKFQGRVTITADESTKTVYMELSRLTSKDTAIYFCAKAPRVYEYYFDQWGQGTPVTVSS VL: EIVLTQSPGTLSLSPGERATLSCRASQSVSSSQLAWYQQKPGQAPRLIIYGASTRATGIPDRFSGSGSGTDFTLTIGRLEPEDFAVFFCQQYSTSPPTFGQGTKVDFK	RLU	3470
TCN-522 (3212_I12) (antibody, V domains shown) VH: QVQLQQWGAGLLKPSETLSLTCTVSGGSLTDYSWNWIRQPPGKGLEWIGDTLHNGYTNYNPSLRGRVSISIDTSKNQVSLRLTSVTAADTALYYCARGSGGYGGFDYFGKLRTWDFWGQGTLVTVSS VL: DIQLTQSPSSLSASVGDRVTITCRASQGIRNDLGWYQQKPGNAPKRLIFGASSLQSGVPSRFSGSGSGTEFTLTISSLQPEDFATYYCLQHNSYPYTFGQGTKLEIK	RLU	5050
TCN-543 (5081_G23) (antibody, V domains shown) VH: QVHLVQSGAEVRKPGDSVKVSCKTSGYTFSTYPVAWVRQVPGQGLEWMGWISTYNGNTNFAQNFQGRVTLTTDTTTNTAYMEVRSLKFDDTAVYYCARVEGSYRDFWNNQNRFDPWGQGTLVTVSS VL: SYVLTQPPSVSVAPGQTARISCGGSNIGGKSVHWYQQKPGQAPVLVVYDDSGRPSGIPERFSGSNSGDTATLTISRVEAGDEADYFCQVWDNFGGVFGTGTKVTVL	RLU	9160

Give the measured Trimeric HA Binding: RLU of TCN-538 (3206_O17) (antibody, V domains shown) VH: QITLKESGPTLVKPTQTLTLTCVFSGFSLSITGVRVGWIRQPPGKALEWLALISWDDEKHYSPSLQSRLTITKDTSKNQVVLTMTNLDPVDTATYYCARSTDRGHVLRYFGWMLPGDAFDVWGQGTMVTVSS VL: DIVMTQSPDFLPVSLGERATINCKSSQRVLYSSNNKNYLAWYQLKPGQPPKLIIYWASTRESGVPDRFSGSGSGTEFTLTISSLQAEDVAVYYCQQYYSRPYTFGQGTKLEIK .
1270

What do we get for TCN-544 (5082_A19) (antibody, V domains shown) VH: QVQLQESGPGLVKPSETLSLTCTVSRGSIGHYFWSWIRQPPGKGLEWIGYISYSGSTKYNPSLRSRVTISVDTSKNQFSLNLNSVTATDTALYYCAREDYDILTGAGPGMEVWGQGTTVTVSS VL: QSMLTQPPSASGTPGQRVTISCSGSSSNIGSNTVNWFKHLPGTAPKLLIYRNDLRPSGVPDRFSGSKSGTSASLAISGLQSEDEADYYCATWDDSLNGFYVFGTGTKVTVL ?
534
